- measurementTarget: SMYD3 (Homo sapiens (Human))
- measurementProtocol: SMYD3 biochemical assay (SPA, 3H-SAM methylation of MEKK2 protein substrate)
- reportedConditions: read-out: SMYD3 Biochem IC50
# note: exactly 70 nM is not below, so it is 0.0; use 1.0 for IC50 strictly under it

[[record]]
molecule = "O=C(NC1CC2CCCC(C1)N2S(=O)(=O)CC1CCCNC1)c1cc(C2CC2)on1 (stereo not shown)"
discretelabel = 1.0

[[record]]
molecule = "NCCNc1ccc(S(=O)(=O)N2C3CCCC2CC(NC(=O)c2cc(C4CC4)on2)C3)cn1 (stereo not shown)"
discretelabel = 1.0

[[record]]
molecule = "NCCCNc1ccc(S(=O)(=O)N2C3CCCC2CC(NC(=O)c2cc(C4CC4)on2)C3)cn1 (stereo not shown)"
discretelabel = 0.0

[[record]]
molecule = "COCCNc1ccc(S(=O)(=O)N2CC[C@@H](NC(=O)c3cc(C4CC4)on3)C[C@@H]2C)cn1"
discretelabel = 0.0

[[record]]
molecule = "CNc1ncccc1S(=O)(=O)N1C2CCCC1CC(NC(=O)c1cc(C3CC3)on1)C2 (stereo not shown)"
discretelabel = 0.0

[[record]]
molecule = "CC(C)CN(C)c1ccc(S(=O)(=O)N2C3CCCC2CC(NC(=O)c2cc(C4CC4)on2)C3)cn1 (stereo not shown)"
discretelabel = 0.0

[[record]]
molecule = "CN(CCCN)c1ccc(S(=O)(=O)N2C3CCCC2CC(NC(=O)c2cc(C4CC4)on2)C3)cn1 (stereo not shown)"
discretelabel = 0.0

